Tested on: Alopecurus
Test: Post-emergence test/greenhouse
Assay type: in vivo
Details: greenhouse, application rate 15 gai/ha, rated after three weeks, 0%=no effect, 100%=total destruction
Entries and their degree of damage to the plants, Alopecurus
Give just the number in %; leave the unit off.

Look over these answered cases.
# MOLECULE, ASSAY RESULT
data = [
    ("COCc1nn(C(=O)NS(=O)(=O)c2c(C(=O)OC)csc2C)c(=O)n1C [Example 18]", 95),
    ("COC(=O)c1csc(C)c1S(=O)(=O)NC(=O)n1nc(C2CC2)n(C)c1=O [Example 22]", 99),
    ("CCSc1nn(C(=O)NS(=O)(=O)c2c(C(=O)OC)csc2C)c(=O)n1C [Example 20]", 90),
    ("CCOC(=O)c1csc(C)c1S(=O)(=O)NC(=O)n1nc(OCC)n(C)c1=O [Example 55]", 90),
    ("CCCc1nn(C(=O)NS(=O)(=O)c2c(C(=O)OC)csc2C)c(=O)n1OC [Example 42]", 90),
]

Prompt: # lookup: degree of damage to the plants, Alopecurus of CCCOc1nn(C(=O)NS(=O)(=O)c2c(C(=O)OC)csc2C)c(=O)n1C1CC1 [(B), reference compound]
Response: 0

Prompt: Form field: reported degree of damage to the plants, Alopecurus of CCCc1nn(C(=O)NS(=O)(=O)c2c(C(=O)OC)csc2C)c(=O)n1C [Example 15]
Response: 95

Prompt: Tell me the measured degree of damage to the plants, Alopecurus of COC(=O)c1csc(C)c1S(=O)(=O)NC(=O)n1nc(C)n(C2CC2)c1=O [Example 46] , please.
Response: 80

Prompt: Fill blank: measured degree of damage to the plants, Alopecurus of the molecule CCCOc1nn(C(=O)NS(=O)(=O)c2c(C(=O)OC)csc2C)c(=O)n1C [(A), reference compound] is ____.
Response: 70

---

Form field: degree of damage to the plants, wheat (one value per entry).
System: wheat
Assay: Post-emergence test/greenhouse
Assay type: in vivo
Conditions: greenhouse, application rate 15 gai/ha, rated after three weeks, 0%=no effect, 100%=total destruction
Write the answer as a number in %, unit excluded.

For orientation, consider the following solved cases.
# COMPOUND, degree of damage to the plants, wheat (%)
records = [
    ("CCCOc1nn(C(=O)NS(=O)(=O)c2c(C(=O)OC)csc2C)c(=O)n1C [(A), reference compound]", 0),
    ("CCOC(=O)c1csc(C)c1S(=O)(=O)NC(=O)n1nc(OC)n(C2CC2)c1=O [Example 56]", 0),
    ("CCCOc1nn(C(=O)NS(=O)(=O)c2c(C(=O)OC)csc2C)c(=O)n1C1CC1 [(B), reference compound]", 30),
]

Prompt: Sample CCOC(=O)c1csc(C)c1S(=O)(=O)NC(=O)n1nc(OC)n(C)c1=O [Example 1] — what was its degree of damage to the plants, wheat?
Response: 0

Prompt: // returns reported degree of damage to the plants, wheat for input CCSc1nn(C(=O)NS(=O)(=O)c2c(C(=O)OC)csc2C)c(=O)n1C [Example 20]
Response: 0

Prompt: # lookup: degree of damage to the plants, wheat of COC(=O)c1csc(C)c1S(=O)(=O)NC(=O)n1nc(C2CC2)n(C)c1=O [Example 22]
Response: 0

---

Tested on: Solanum
Assay: Pre-emergence test/greenhouse
Type: in vivo
Details: greenhouse, application rate 15 gai/ha, rated after three weeks, 0%=no effect, 100%=total destruction
MEASUREMENT KIND: degree of damage to the plants, Solanum (%)
Report the figure in % without appending any unit label.

# COMPOUND, degree of damage to the plants, Solanum (%)
measured = [
    ("COC(=O)c1csc(C)c1S(=O)(=O)NC(=O)n1nc(SC)n(C)c1=O [(G), reference compound]", 80),
    ("COC(=O)c1csc(C)c1S(=O)(=O)NC(=O)n1nc(C)n(C)c1=O [(E), reference compound]", 70),
    ("CCSc1nn(C(=O)NS(=O)(=O)c2c(C(=O)OC)csc2C)c(=O)n1C [Example 20]", 100),
]

Prompt: Any idea what its degree of damage to the plants, Solanum is? The compound is CCCOc1nn(C(=O)NS(=O)(=O)c2c(C(=O)OC)csc2C)c(=O)n1C1CC1 [(B), reference compound]
Response: 80
